- Test system: dengue virus type 2
- measurement-protocol: Antiviral activity against DENV2 New Guinea C infected in human HuH7 cells after 48 hrs by luciferase reporter gene assay
- Assay type: functional, organism-based
- run-parameters: Huh-7, 48 h
quantity: pEC50
The read-out pEC50 is expressed as -log10 of concentration in moles per litre.

Recorded results for 3 compounds are shown here.
COc1cc(-c2cnc3c(N4CC5(COC5)C4)snc3c2)ccc1N = 5.15
COc1cc(-c2cnc3c(N4C[C@@H](C)O[C@H](C)C4)snc3c2)ccc1N (relative stereo) = 6.15
COc1cc(-c2cnc3c(N4CCOCC4)snc3c2)ccc1N = 5.73

Notebook: `COc1cc(-c2cnc3c(N4C[C@@H](C)O[C@@H](C)C4)snc3c2)ccc1N` , pEC50 read as 6.09

----------
- System: Huh-7
- measurement-protocol: Cytotoxicity against human HuH7 cells after 48 hrs by CellTiter-Glo assay
- Assay type: cell-based
- run-parameters: huh-7, 48 h
quantity: CC50 (µM)
Hi! Could you send only the number? It should be in µM, unit omitted.

COc1cc(-c2cnc3c(N4CCOC(C)C4)snc3c2)ccc1N (racemic) = 9.4

Turning now to a further molecule:
Notebook: `COc1cc(-c2cnc3c(N4CCOCC4)snc3c2)ccc1N` , CC50 read as 11

----------
The following molecules have recorded Kd on Cyclin-G-associated kinase (Homo sapiens, UniProt O14976).
Sequence (O14976 whole entry): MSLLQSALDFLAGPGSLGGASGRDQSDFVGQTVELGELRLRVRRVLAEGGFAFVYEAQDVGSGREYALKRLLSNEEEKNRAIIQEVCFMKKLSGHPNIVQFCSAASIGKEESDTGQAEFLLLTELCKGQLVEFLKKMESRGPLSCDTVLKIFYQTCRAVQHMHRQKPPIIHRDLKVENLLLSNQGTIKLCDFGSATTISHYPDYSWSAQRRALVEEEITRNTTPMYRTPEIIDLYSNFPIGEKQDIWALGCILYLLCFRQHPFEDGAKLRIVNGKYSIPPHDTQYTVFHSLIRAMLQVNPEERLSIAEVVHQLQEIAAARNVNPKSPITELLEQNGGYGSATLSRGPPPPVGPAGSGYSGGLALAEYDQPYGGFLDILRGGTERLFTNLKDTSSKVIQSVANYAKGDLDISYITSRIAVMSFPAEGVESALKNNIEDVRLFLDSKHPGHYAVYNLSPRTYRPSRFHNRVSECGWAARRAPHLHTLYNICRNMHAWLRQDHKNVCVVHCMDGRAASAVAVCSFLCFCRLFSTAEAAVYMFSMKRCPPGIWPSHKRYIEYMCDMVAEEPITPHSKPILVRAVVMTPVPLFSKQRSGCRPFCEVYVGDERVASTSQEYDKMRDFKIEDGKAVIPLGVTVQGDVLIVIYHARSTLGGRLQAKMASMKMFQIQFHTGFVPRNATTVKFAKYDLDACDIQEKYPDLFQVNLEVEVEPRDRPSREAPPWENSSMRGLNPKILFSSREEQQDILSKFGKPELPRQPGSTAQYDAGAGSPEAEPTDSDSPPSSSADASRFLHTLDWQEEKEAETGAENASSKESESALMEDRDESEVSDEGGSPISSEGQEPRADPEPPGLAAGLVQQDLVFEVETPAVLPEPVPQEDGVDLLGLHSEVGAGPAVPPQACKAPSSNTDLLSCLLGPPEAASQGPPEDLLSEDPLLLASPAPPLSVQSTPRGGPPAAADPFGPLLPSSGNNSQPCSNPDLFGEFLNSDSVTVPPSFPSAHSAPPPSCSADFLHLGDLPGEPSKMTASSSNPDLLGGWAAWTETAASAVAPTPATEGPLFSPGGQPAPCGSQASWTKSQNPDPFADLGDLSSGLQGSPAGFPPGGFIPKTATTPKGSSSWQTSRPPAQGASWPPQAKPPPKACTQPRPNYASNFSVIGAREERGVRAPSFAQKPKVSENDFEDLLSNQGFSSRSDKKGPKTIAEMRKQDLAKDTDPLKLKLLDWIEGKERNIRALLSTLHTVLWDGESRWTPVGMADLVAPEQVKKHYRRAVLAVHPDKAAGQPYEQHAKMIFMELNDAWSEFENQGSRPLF
Hi! Could you send only the number? It should be in nM, unit omitted.

COc1cc(-c2cnc3c(N4CC5(COC5)C4)snc3c2)ccc1N = 170

Notebook: `COc1cc(-c2cnc3c(N4C[C@@H](C)O[C@@H](C)C4)snc3c2)ccc1N` , Kd read as 89

----------
- measurement-protocol: Apparent permeability cross apical to basolateral side in MDCK-MDR1 cells at 5 uM after 90 mins by LC-MS/MS analysis
- Type: ADME, cell-based, Canis lupus familiaris
- run-parameters: dog, mdck-mdr1, 1.5 h
quantity: Papp
# include the unit after the value

Recorded results for 2 compounds are shown here.
COc1cc(-c2cnc3c(N4CCOCC4)snc3c2)ccc1N = 45.45 ×10⁻⁶ cm/s
COc1cc(-c2cnc3c(N4C[C@@H](C)O[C@@H](C)C4)snc3c2)ccc1N = 31.33 ×10⁻⁶ cm/s

Notebook: `COc1cc(-c2cnc3c(N4CCNC(=O)C4)snc3c2)ccc1N` , Papp read as 30.32 ×10⁻⁶ cm/s

Notebook: COCCc1ccc(OCC(O)CNC(C)C)cc1 (centres undefined) , Papp read as 39.29 ×10⁻⁶ cm/s

----------
- measurement-protocol: Cytotoxicity against human MDDC cells after 72 hrs by Alamar Blue assay
- Assay type: cell-based
quantity: CC50

Notebook: `COc1cc(-c2cnc3c(N4C[C@@H](C)O[C@@H](C)C4)snc3c2)ccc1N` , CC50 read as > 20 µM

----------
Measured CC50 accompanies every entry in the list below.
- Tested on: Huh-7
- measurement-protocol: Cytotoxicity against human HuH7 cells after 48 hrs by Alamar Blue assay
- Format: cell-based
- run-parameters: huh-7, 48 h

Notebook: `COc1cc(-c2cnc3c(NC4CCOCC4)snc3c2)ccc1N` , CC50 read as > 20 µM

Notebook: `COc1cc(-c2cnc3c(N4CCOC(C)(C)C4)snc3c2)ccc1N` , CC50 read as 4.14 µM

Notebook: `COc1cc(-c2cnc3c(N4CCC(F)(F)CC4)snc3c2)ccc1N` , CC50 read as > 10 µM

Notebook: `COc1cc(-c2cnc3c(N4CCCOCC4)snc3c2)ccc1N` , CC50 read as > 10 µM

Notebook: `COc1cc(-c2cnc3c(N4CC5(COC5)C4)snc3c2)ccc1N` , CC50 read as > 10 µM

Notebook: `COc1cc(-c2cnc3c(N4CCO[C@@H](C)C4)snc3c2)ccc1N` , CC50 read as > 25 µM

Notebook: `COc1cc(-c2cnc3c(N4CCOC[C@H]4C)snc3c2)ccc1N` , CC50 read as > 10 µM

Notebook: `COc1cc(-c2cnc3c(N4CCNC(=O)C4)snc3c2)ccc1N` , CC50 read as > 10 µM
